Assay: Brain concentrations of harmine, DMT and metabolites by UHPLC-MS after s.c. harmine and/or DMT
Conditions: Exp 1, group Har + DMT, front cort
# Percentage of total molar concentration of DMT and metabolites annotations

Example entries begin here.
- Compound: "CN(C)CCc1c[nH]c2ccccc12 [DMT, N,N-dimethyltryptamine]"
  Meas Value: "34.7%"
- Compound: "O=C(O)Cc1c[nH]c2ccccc12 [3-IAA, indole-3-acetic acid]"
  Meas Value: "64.2%"
- Compound: "CNCCc1c[nH]c2ccccc12 [NMT, N-methyltryptamine]"
  Meas Value: "0.0%"

We next turn to a different compound, shown below.
Sample C[N+](C)([O-])CCc1c[nH]c2ccccc12 [DMT-N-Oxide, DMT-N-oxide] — what was its Percentage of total molar concentration of DMT and metabolites?
1.1%

----------
# Percentage of total molar concentration of DMT and metabolites annotations
Test: Brain concentrations of harmine, DMT and metabolites by UHPLC-MS after s.c. harmine and/or DMT
Details: Exp 2, group Har + DMT, front cort
Give the number; % is assumed, so skip it.

- Compound: "CN(C)CCc1c[nH]c2ccccc12 [DMT, N,N-dimethyltryptamine]"
  Quantity Unit: "%"
  Meas Value: 74.9
- Compound: "O=C(O)Cc1c[nH]c2ccccc12 [3-IAA, indole-3-acetic acid]"
  Quantity Unit: "%"
  Meas Value: 24.7
- Compound: "CNCCc1c[nH]c2ccccc12 [NMT, N-methyltryptamine]"
  Quantity Unit: "%"
  Meas Value: 0.1

We next turn to a different compound, shown below.
Sample C[N+](C)([O-])CCc1c[nH]c2ccccc12 [DMT-N-Oxide, DMT-N-oxide] — what was its Percentage of total molar concentration of DMT and metabolites?
0.3

----------
# concentration at 95 min annotations
Experiment: Brain concentrations of harmine, DMT and metabolites by UHPLC-MS after s.c. harmine and/or DMT
Conditions: rat, brain (average of frontal cortex and cerebellum), subcutaneous, 1 mg/kg, Molar concentration, Exp 1, group DMT, average of regions
Give the number; nM is assumed, so skip it.

- Molecule: "O=C(O)Cc1c[nH]c2ccccc12 [3-IAA, indole-3-acetic acid]"
  concentration at 95 min [nM]: 2580
- Molecule: "CN(C)CCc1c[nH]c2ccccc12 [DMT, N,N-dimethyltryptamine]"
  concentration at 95 min [nM]: 61.5

We next turn to a different molecule, shown below.
Sample CNCCc1c[nH]c2ccccc12 [NMT, N-methyltryptamine] — what was its concentration at 95 min?
0.15

----------
Test: Brain concentrations of harmine, DMT and metabolites by UHPLC-MS after s.c. harmine and/or DMT
Conditions: rat, brain (average of frontal cortex and cerebellum), subcutaneous, Molar concentration, Exp 2, group Har + DMT, average of regions
# concentration at 65 min annotations
Give the number; µM is assumed, so skip it.

Sample O=C(O)Cc1c[nH]c2ccccc12 [3-IAA, indole-3-acetic acid] — what was its concentration at 65 min?
3.38

Sample CNCCc1c[nH]c2ccccc12 [NMT, N-methyltryptamine] — what was its concentration at 65 min?
0.0159

Sample CN(C)CCc1c[nH]c2ccccc12 [DMT, N,N-dimethyltryptamine] — what was its concentration at 65 min?
9.55

----------
Assay: Brain concentrations of harmine, DMT and metabolites by UHPLC-MS after s.c. harmine and/or DMT
Conditions: rat, cerebellum, subcutaneous, 1 mg/kg, Brain concentration, Experiment 1, cerebellum, after DMT alone (1 mg/kg)
Observable: concentration at 95 min
Could you kindly put the unit after your number?

Sample O=C(O)Cc1c[nH]c2ccccc12 [3-IAA, indole-3-acetic acid] — what was its concentration at 95 min?
2300 nM

Data origin: paper PMC10568461
